system: NCI-H1876 tumor spheroid viability; assay: Anticancer human tumor NCI-H1876 cell line growth inhibition; settings: second compound 0.0949 µM; first compound 0.1 µM; hits give low values; spheroids with HUVEC and MSC;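 also: spheroids exposed to compounds for seven days before the viability read; percent of DMSO vehicle control viability so 100% = vehicle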
Recorded metric: viability, T/C (%)

[
  {
    "Compound": "Cc1cc(C)c(CNC(=O)c2cc(-c3ccc(CN4CCOCC4)cc3)cc3c2cnn3C2CCCC2)c(=O)[nH]1 + CC[C@@]1(O)C(=O)OCc2c1cc1n(c2=O)Cc2cc3c(CN(C)C)c(O)ccc3nc2-1",
    "Measurement unit": "%",
    "Assay value": 9.17
  },
  {
    "Compound": "COc1ccc([C@@H](O)c2cc(-c3ncnc4cc(N5CCOCC5)ccc34)c(F)cc2Cl)nn1 + CC[C@@]1(O)C(=O)OCc2c1cc1n(c2=O)Cc2cc3c(CN(C)C)c(O)ccc3nc2-1",
    "Measurement unit": "%",
    "Assay value": 2.62
  },
  {
    "Compound": "CC(C)n1c(=O)n(C)c2cnc3cc(F)c(-c4ccc(OCCCN5CCCCC5)nc4)cc3c21 + CC[C@@]1(O)C(=O)OCc2c1cc1n(c2=O)Cc2cc3c(CN(C)C)c(O)ccc3nc2-1",
    "Measurement unit": "%",
    "Assay value": 2.07
  }
]
